The reported measurements were obtained from ChEMBL document CHEMBL5614375.

experimental system: IL17-RE-IL-17C (Homo sapiens, UniProt Q8NFR9+Q9P0M4)
Sequence (Q9P0M4 whole entry): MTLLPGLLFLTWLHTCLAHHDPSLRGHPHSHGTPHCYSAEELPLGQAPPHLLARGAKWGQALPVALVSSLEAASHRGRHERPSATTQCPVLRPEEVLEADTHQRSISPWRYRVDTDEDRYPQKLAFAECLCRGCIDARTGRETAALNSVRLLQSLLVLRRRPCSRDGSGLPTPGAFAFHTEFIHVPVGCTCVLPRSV
Sequence (Q8NFR9 whole entry): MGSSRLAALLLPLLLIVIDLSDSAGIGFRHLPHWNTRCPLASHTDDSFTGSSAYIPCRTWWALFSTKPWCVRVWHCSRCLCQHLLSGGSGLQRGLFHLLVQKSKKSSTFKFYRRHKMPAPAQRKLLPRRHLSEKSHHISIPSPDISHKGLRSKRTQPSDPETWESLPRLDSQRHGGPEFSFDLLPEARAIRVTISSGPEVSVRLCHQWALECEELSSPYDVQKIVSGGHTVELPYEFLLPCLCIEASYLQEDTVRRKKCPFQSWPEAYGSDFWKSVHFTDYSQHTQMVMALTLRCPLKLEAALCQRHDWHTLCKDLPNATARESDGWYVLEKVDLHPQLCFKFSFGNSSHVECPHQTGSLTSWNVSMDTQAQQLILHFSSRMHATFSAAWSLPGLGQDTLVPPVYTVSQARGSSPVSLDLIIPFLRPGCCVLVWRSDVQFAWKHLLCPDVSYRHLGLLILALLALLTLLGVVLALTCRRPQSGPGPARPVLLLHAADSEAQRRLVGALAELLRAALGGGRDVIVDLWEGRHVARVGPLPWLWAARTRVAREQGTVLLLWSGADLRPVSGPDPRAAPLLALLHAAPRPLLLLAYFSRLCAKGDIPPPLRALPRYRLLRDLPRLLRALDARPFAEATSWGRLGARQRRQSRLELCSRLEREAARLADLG
assay overview: Inhibition of interleukin-17RE/biotinylated IL-17C protein-protein interaction (unknown origin) incubated for 1 hrs by competitive ELISA
Bridge positions count the residues as written; N and C are the ends. Peptide text beside a SMILES is read from it.
metric: pIC50
As a rule, pIC50 stands for the negative log10 of the concentration, concentration in M.

Query: Supply pIC50 value. Item: CC[C@H](C)[C@@H]1NC(=O)[C@H](CCCNC(=N)N)NC(=O)[C@H](Cc2ccc(O)cc2)NC(=O)[C@H](Cc2ccc(O)cc2)NC(=O)[C@H](Cc2c[nH]cn2)NC(=O)[C@H](Cc2c[nH]cn2)NC(=O)[C@H](Cc2ccc(O)cc2)NC(=O)CSC[C@@H](C(=O)NCC(N)=O)NC(=O)CNC(=O)[C@H](CC(C)C)NC(=O)[C@H](CCC(=O)O)NC(=O)CNC(=O)[C@H](Cc2ccc(O)cc2)NC(=O)[C@H](Cc2ccccc2)NC1=O ({CH2CO}-YHHYYRIFYGELGCG-NH2; thioether N-14)
Reply: 4.63

Query: Give the reported value of pIC50 for this record: CC[C@H](C)[C@@H]1NC(=O)[C@H](CCCCN)NC(=O)[C@H](Cc2ccc(O)cc2)NC(=O)[C@H](Cc2ccc(O)cc2)NC(=O)[C@H](Cc2c[nH]cn2)NC(=O)[C@H](Cc2c[nH]cn2)NC(=O)[C@H](Cc2ccc(O)cc2)NC(=O)CSC[C@@H](C(=O)NCC(N)=O)NC(=O)CNC(=O)[C@H](CC(C)C)NC(=O)[C@H](CCC(=O)O)NC(=O)CNC(=O)[C@H](Cc2ccc(O)cc2)NC(=O)[C@H](CC(C)C)NC1=O ({CH2CO}-YHHYYKILYGELGCG-NH2; thioether N-14)
Reply: 6.94

Query: Determine its reported pIC50: CC[C@H](C)[C@@H]1NC(=O)[C@H](CCCNC(=N)N)NC(=O)[C@H](Cc2ccc(O)cc2)NC(=O)[C@H](Cc2ccc(O)cc2)NC(=O)[C@H](Cc2ccc(O)cc2)NC(=O)[C@H](Cc2c[nH]cn2)NC(=O)[C@H](Cc2ccc(O)cc2)NC(=O)CSC[C@@H](C(=O)NCC(N)=O)NC(=O)CNC(=O)[C@H](CC(C)C)NC(=O)[C@H](CCC(=O)O)NC(=O)CNC(=O)[C@H](Cc2ccc(O)cc2)NC(=O)[C@H](CC(C)C)NC1=O ({CH2CO}-YHYYYRILYGELGCG-NH2; thioether N-14)
Reply: 6.92

Query: Consider the compound CC[C@H](C)[C@@H]1NC(=O)[C@H](Cc2c[nH]cn2)NC(=O)[C@H](Cc2ccc(O)cc2)NC(=O)CSC[C@@H](C(=O)NCC(N)=O)NC(=O)CNC(=O)[C@H](CC(C)C)NC(=O)[C@H](CC(=O)O)NC(=O)CNC(=O)[C@H](Cc2ccc(O)cc2)NC(=O)[C@H](CC(C)C)NC(=O)[C@H](CO)NC(=O)[C@H](CCCNC(=N)N)NC(=O)[C@H](Cc2ccc(O)cc2)NC(=O)[C@H](Cc2ccc(O)cc2)NC1=O ({CH2CO}-YHIYYRSLYGDLGCG-NH2; thioether N-14) and give its recorded pIC50.
Reply: 8.77

# evaluate next
Query: Return pIC50 for the following compound: CC[C@H](C)[C@@H]1NC(=O)[C@H](CCCNC(=N)N)NC(=O)[C@H](Cc2ccc(O)cc2)NC(=O)[C@H](Cc2ccc(O)cc2)NC(=O)[C@H](Cc2c[nH]cn2)NC(=O)[C@H](Cc2c[nH]cn2)NC(=O)[C@H](Cc2ccc(O)cc2)NC(=O)CSC[C@@H](C(=O)NCC(N)=O)NC(=O)CNC(=O)[C@H](CC(C)C)NC(=O)[C@H](CCCCN)NC(=O)CNC(=O)[C@H](Cc2ccc(O)cc2)NC(=O)[C@H](CC(C)C)NC1=O ({CH2CO}-YHHYYRILYGKLGCG-NH2; thioether N-14)
Reply: 7.14
